Each entry below carries its reported inhibition at 0.01 µM.
- Test system: Human lung cancer cell line (H292)
- Method Description: Inhibition of H292 cell proliferation (CellTiter luminescent viability)
- Type: cell-based
- Run Conditions: NCI-H292, Table IE2, CDK4/6 inhibitor-based, H292, 10 nM, 96 hours, read-out: Inhibition Rate at 10 nM (%)

// known answers, use as guide
CN(C)C(=O)c1cc2cnc(Nc3ccc(N4CCC(N(C)CC5CCN(c6ccc7c(c6)C(=O)N(N6CCC(=O)NC6=O)C7=O)CC5)CC4)cn3)nc2n1C1CCCC1    30 to 35%
CN(C)C(=O)c1cc2cnc(Nc3ccc(N4CCC(CN5CCN(C6CCN(c7ccc8c(c7)C(=O)N(N7CCC(=O)NC7=O)C8=O)CC6)CC5)CC4)cn3)nc2n1C1CCCC1    35 to 40%

API: the following record is the query input.
Q: Quick one: inhibition at 0.01 µM for "CC(=O)c1c(C)c2cnc(Nc3ccc(N4CCC(N5CCN(Cc6ccc7c(c6)C(=O)N(N6CCC(=O)NC6=O)C7=O)CC5)CC4)cn3)nc2n(C2CCCC2)c1=O" ?
A: 35 to 40%

###

- Test system: Human Multiple myeloma cell line (MM.1S)
- Method Description: Inhibition of MM.1S cell proliferation (CellTiter luminescent viability)
- Format: cell-based
- Run Conditions: Homo sapiens, MM1.S, Table IG1, FAK inhibitor-based, 10 nM, 96 hours, read-out: Inhibition Rate at 10 nM (%)
Quantity Measured: inhibition at 0.01 µM

// known answers, use as guide
CNC(=O)c1ccccc1Nc1cc(Nc2ccc(N3CCN(Cc4ccc5c(c4)C(=O)N(N4CCC(=O)NC4=O)C5=O)CC3)cc2OC)ncc1C(F)(F)F    30 to 40%
CNC(=O)c1ccccc1Nc1cc(Nc2ccc(N3CCOCC3)cc2OC)ncc1C(F)(F)F [PND-1186, reference compound]    5 to 10%
CNC(=O)c1ccccc1Nc1cc(Nc2ccc(N3CCC(N(C)Cc4ccc5c(c4)CN(N4CCC(=O)NC4=O)C5=O)CC3)cc2OC)ncc1C(F)(F)F    20 to 30%
CNC(=O)c1ccccc1Nc1cc(Nc2ccc(N3CCN(Cc4ccc5c(c4)CN(N4CCC(=O)NC4=O)C5=O)CC3)cc2OC)ncc1C(F)(F)F    15 to 20%

Q: Quick one: inhibition at 0.01 µM for "CN(c1cccc(CNc2nc(Nc3ccc(N4CCC(N5CCN(CC6CCN(c7cccc8c7C(=O)N(N7CCC(=O)NC7=O)C8=O)CC6)CC5)CC4)cc3)ncc2C(F)(F)F)c1)S(C)(=O)=O" ?
A: 30 to 40%

###

Each entry below carries its reported inhibition at 0.01 µM.
- System: Human myeloid monocytic leukemia cell line (MV-4-11)
- Method Description: Inhibition of MV-4-11 cell proliferation (CellTiter luminescent viability)
- Type: cell-based
- Run Conditions: Homo sapiens, MV4-11; Table IG2, FAK inhibitor-based; MV-4-11, 10 nM, 96 hours; read-out: Inhibition Rate at 10 nM (%)

CNC(=O)c1ccccc1Nc1cc(Nc2ccc(N3CCOCC3)cc2OC)ncc1C(F)(F)F [PND-1186, reference compound]    5 to 10%
CNC(=O)c1ccccc1Nc1cc(Nc2ccc(N3CCC(N(C)Cc4ccc5c(c4)CN(N4CCC(=O)NC4=O)C5=O)CC3)cc2OC)ncc1C(F)(F)F    40 to 50%
CN(Cc1ccc2c(c1)C(=O)N(N1CCC(=O)NC1=O)C2)C1CCN(c2ccc(Nc3ncc(C(F)(F)F)c(NCc4nccnc4N(C)S(C)(=O)=O)n3)cc2)CC1    -5 to 0%
CN(c1nccnc1CNc1nc(Nc2ccc(N3CCC(N4CCN(CC5CCN(c6cccc7c6C(=O)N(N6CCC(=O)NC6=O)C7=O)CC5)CC4)CC3)cc2)ncc1C(F)(F)F)S(C)(=O)=O    20 to 30%

Q: Quick one: inhibition at 0.01 µM for CNC(=O)c1ccc(Nc2ncc(C(F)(F)F)c(NCc3nccnc3N(C)S(C)(=O)=O)n2)cc1 [Defactinib, reference compound] ?
A: 5 to 10%
